# Tested on: LS174T (colon)
# PROTOCOL NOTES: Antiproliferative activity, ATP method, LS174T
# Assay type: cell-based
# CONDITION INFO: Homo sapiens, LS174T
pIC50: −log10 of the molar value.

- STRUCTURE SMILES STRING: "C[C@@H](O)[C@@]12O[C@]13c1cc(O)c4c(c1N[C@H]2C#C/C=C\\C#C[C@H]3O)C(=O)c1ccc(N)cc1C4=O"
  pIC50: 11.70

###

A collection of compounds and their measured IC50
# Test system: A2780 (ovarian)
# PROTOCOL NOTES: Antiproliferative activity, ATP method, A2780
# Type: cell-based
# CONDITION INFO: Homo sapiens, A2790 cell line, ATP method, read-out: IC50

- COMPOUND: "Nc1ccc(C(=O)Nc2ccc3[nH]c(C(=O)N4C[C@@H](CCl)c5c4cc(O)c4ccccc54)cc3c2)cc1 [Compound A]"
  ASSAYED TARGET: "A2780 (ovarian)"
  UNIT TAG: "nM"
  IC50: 0.004
- COMPOUND: "COc1cccc2c1C(=O)c1c(O)c3c(c(O)c1C2=O)C[C@@](O)(C(=O)CO)C[C@@H]3O[C@H]1C[C@H](N)[C@H](O)[C@H](C)O1 [Doxorubicin, doxorubicin]"
  ASSAYED TARGET: "A2780 (ovarian)"
  UNIT TAG: "nM"
  IC50: 11.2
